tested on: C6 plasma membrane associated metalloendoprotease; test: Enzyme assay: cbz-FAF[125I]Y-NH2 degradation by C6 plasma membranes with protease blockers; format: biochemical, rat
Where a SMILES comes first, the peptide text is derived from it. [ ]: non-standard residue; d: D form. The star is where a group is joined. Sta = CC(C)C[C@H](N)[C@@H](O)CC(=O)O; Isovaleryl = CC(C)CC(=O)*
RESULT TYPE: Effect on cbz-FAF[^125I]Y-NH2 degradation by C6 plasma membranes, in words

| MOLECULE | SYSTEM NAME | RESULT |
| --- | --- | --- |
| CCN1C(=O)C=CC1=O [N-ethylmaleimide] | C6 plasma membrane associated metalloendoprotease | had no effect |
| CC(C)CC(=O)N[C@H](C(=O)N[C@H](C(=O)N[C@@H](CC(C)C)[C@@H](O)CC(=O)N[C@@H](C)C(=O)N[C@@H](CC(C)C)[C@@H](O)CC(=O)O)C(C)C)C(C)C [pepstatine] (Isovaleryl-VV[Sta]A[Sta]-OH) | C6 plasma membrane associated metalloendoprotease | had no effect |
| C[C@H](CS)C(=O)N1CCC[C@H]1C(=O)O [Captopril] | C6 plasma membrane associated metalloendoprotease | had no effect |

---

tested on: C6 glioblastoma cells; experiment: cells; assay type: cell-based, rat; conditions: Rattus norvegicus; C6 cell spreading on CNS myelin; 2 h; read-out: IC50 on CNS myelin
pIC50: −log10 of the molar value.

| MOLECULE | pIC50 |
| --- | --- |
| c1cnc2c(c1)ccc1cccnc12 [1,10-phenanthroline] | 3.70 |

---

target: C6 plasma membrane associated metalloendoprotease; assay: Enzyme assay: cbz-FAF[125I]Y-NH2 degradation by C6 plasma membranes with protease blockers
pIC50: −log10 of the molar value.
RESULT TYPE: pIC50

| COMPOUND STRUCTURE | RESULT TYPE | QUANTITATIVE READOUT |
| --- | --- | --- |
| c1cnc2c(c1)ccc1cccnc12 | pIC50 | 3.70 |

Origin of measurements: patent US6960559B1
